# TESTED TARGET: T1, human VEGF (hVEGF) (human, UniProt P15692 181-395)
# T1 construct: also called VEGF-A
# T1 sequence: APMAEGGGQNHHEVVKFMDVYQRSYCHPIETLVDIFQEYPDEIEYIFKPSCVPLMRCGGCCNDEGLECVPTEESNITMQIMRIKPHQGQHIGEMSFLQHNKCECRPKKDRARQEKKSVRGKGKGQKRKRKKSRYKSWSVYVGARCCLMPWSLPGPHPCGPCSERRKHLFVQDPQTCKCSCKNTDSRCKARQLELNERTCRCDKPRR
# ASSAY NAME: SPR single-cycle
In this section we review reported Kd values for a set of binders.
// return numeric value only (unit: nM, not printed)

{"BINDER": "G6.31 HC-A53R (Fab, name in Kabat numbering, V domains shown, Fab) VH: EVQLVESGGGLVQPGGSLRLSCAASGFTISDYWIHWVRQAPGKGLEWVAGITPRGGYTYYADSVKGRFTISADTSKNTAYLQMNSLRAEDTAVYYCARFVFFLPYAMDYWGQGTLVTVSS VL: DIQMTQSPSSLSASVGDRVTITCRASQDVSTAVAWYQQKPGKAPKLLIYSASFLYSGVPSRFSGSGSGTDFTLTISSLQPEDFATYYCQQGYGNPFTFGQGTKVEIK", "UNIT OF MEASURE": "nM", "Kd": 0.42}

# ---- query binder ----
State its Kd for this binder: G6.31 HC-N82aR (Fab, name in Kabat numbering, V domains shown, Fab) VH: EVQLVESGGGLVQPGGSLRLSCAASGFTISDYWIHWVRQAPGKGLEWVAGITPAGGYTYYADSVKGRFTISADTSKNTAYLQMRSLRAEDTAVYYCARFVFFLPYAMDYWGQGTLVTVSS VL: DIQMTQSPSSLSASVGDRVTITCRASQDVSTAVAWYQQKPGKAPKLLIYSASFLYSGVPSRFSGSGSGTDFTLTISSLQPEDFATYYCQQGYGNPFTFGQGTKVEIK
0.23

Reference source for all entries: patent US20210115124A1
